For each of the compounds below, state its IC50.
Molecular target: BCL6-NCOR2(SMRT) corepressor protein-protein interaction (Homo sapiens (Human), UniProt P41182)
Experiment: NanoBRET cell assay
Format: cell-based
Settings: further generated data; transfected HEK293T cells, 6 hr; read-out: NanoBRET cell pIC50 (converted)
Give bare numbers, in µM.

>  <compound>
Cn1c(=O)n(CCC(C)(C)O)c2cc(Nc3nc(-c4n[nH]c5ccccc45)ncc3Cl)ccc21 [Example 17a]

>  <units-of-measure>
µM

>  <IC50>
1.15

$$$$
>  <compound>
CC(C)(O)CCn1c(=O)n(CCC(C)(C)O)c2ncc(Nc3nc(N4CC(C)(C)OC(C)(C)C4)ncc3Cl)cc21 [Example 35q]

>  <units-of-measure>
µM

>  <IC50>
1.7

$$$$

Could you tell me IC50 for each of these compounds? They are listed below.
1. CN(C)C(=O)C1CCN(c2ncc(Cl)c(Nc3ccc4c(c3)n(CCC(C)(C)O)c(=O)n4C)n2)CC1 [Example 20c]
2. C[C@@H]1CN(c2ncc(Cl)c(Nc3ccc4c(c3)n(CCC(C)(C)O)c(=O)n4C)n2)C[C@H](C2CC2)O1 [Example 21a]
3. C[C@@H]1C[C@H](O)CN(c2ncc(Cl)c(Nc3ccc4c(c3)n(CCC(C)(C)O)c(=O)n4C)n2)C1 [Example 35x]
4. C[C@@H]1CN(c2ncc(Cl)c(Nc3ccc4c(c3)n(CCC(C)(C)O)c(=O)n4C)n2)C[C@@H](C2CC2)O1 [Example 21b]
5. C[C@@H]1CN(c2ncc(Cl)c(Nc3ccc4c(c3)n(CCC(C)(C)O)c(=O)n4C)n2)C[C@H](C)N1C [Example 35l]
6. Cn1c(=O)n(CCC(C)(C)O)c2cc(Nc3nc(N4CCC(C(F)(F)F)CC4)ncc3Cl)ccc21 [Example 35g]
7. CCOC(=O)c1c(C)nn(-c2ncc(Cl)c(Nc3ccc4c(c3)n(CCC(C)(C)O)c(=O)n4C)n2)c1C [Example 15c]
8. Cc1cc(C)n(-c2ncc(Cl)c(Nc3ccc4c(c3)n(CCC(C)(C)O)c(=O)n4C)n2)n1 [Example 15a]

Result:
2.14
1.35
3.16
1.38
1.51
2.24
2.04
1.78
